Measured on: Mmp7 (rat)
Experiment description: reporter assay of Huesken 2005
Conditions: siRNA
Oligonucleotides are given in HELM: sugar(base)linkage, 5' to 3'; d 2'-deoxyribose, r ribose, m 2'-O-methylribose, p phosphate. ss, as = sense and antisense strand
Everything with normalised inhibition (eCFP-eYFP dual reporter) lower than 90% is not fulfilled; everything else, including exactly 90%, is fulfilled.

Entry RNA1{r(C)p.r(G)p.r(G)p.r(C)p.r(G)p.r(G)p.r(A)p.r(G)p.r(A)p.r(U)p.r(G)p.r(C)p.r(U)p.r(C)p.r(A)p.r(C)p.r(U)p.r(U)p.r(U)p.d(T)p.d(T)}|RNA2{r(A)p.r(A)p.r(A)p.r(G)p.r(U)p.r(G)p.r(A)p.r(G)p.r(C)p.r(A)p.r(U)p.r(C)p.r(U)p.r(C)p.r(C)p.r(G)p.r(C)p.r(C)p.r(G)p.d(A)p.d(G)}$$$RNA1{StrandType:ss}|RNA2{StrandType:as}$ : is its normalised inhibition (eCFP-eYFP dual reporter) no less than 90%?
fulfilled

Continuing:
Entry RNA1{r(U)p.r(C)p.r(U)p.r(A)p.r(A)p.r(A)p.r(A)p.r(C)p.r(A)p.r(A)p.r(A)p.r(G)p.r(A)p.r(A)p.r(G)p.r(G)p.r(C)p.r(C)p.r(A)p.d(T)p.d(T)}|RNA2{r(U)p.r(G)p.r(G)p.r(C)p.r(C)p.r(U)p.r(U)p.r(C)p.r(U)p.r(U)p.r(U)p.r(G)p.r(U)p.r(U)p.r(U)p.r(U)p.r(A)p.r(G)p.r(A)p.d(G)p.d(T)}$$$RNA1{StrandType:ss}|RNA2{StrandType:as}$ : is its normalised inhibition (eCFP-eYFP dual reporter) no less than 90%?
fulfilled

Check RNA1{r(C)p.r(C)p.r(A)p.r(G)p.r(G)p.r(A)p.r(A)p.r(A)p.r(C)p.r(A)p.r(C)p.r(U)p.r(C)p.r(U)p.r(A)p.r(G)p.r(G)p.r(C)p.r(C)p.d(T)p.d(T)}|RNA2{r(G)p.r(G)p.r(C)p.r(C)p.r(U)p.r(A)p.r(G)p.r(A)p.r(G)p.r(U)p.r(G)p.r(U)p.r(U)p.r(U)p.r(C)p.r(C)p.r(U)p.r(G)p.r(G)p.d(C)p.d(C)}$$$RNA1{StrandType:ss}|RNA2{StrandType:as}$ too.
not fulfilled

Check RNA1{r(A)p.r(A)p.r(G)p.r(U)p.r(U)p.r(C)p.r(U)p.r(U)p.r(C)p.r(G)p.r(G)p.r(U)p.r(U)p.r(U)p.r(G)p.r(C)p.r(C)p.r(G)p.r(G)p.d(T)p.d(T)}|RNA2{r(C)p.r(C)p.r(G)p.r(G)p.r(C)p.r(A)p.r(A)p.r(A)p.r(C)p.r(C)p.r(G)p.r(A)p.r(A)p.r(G)p.r(A)p.r(A)p.r(C)p.r(U)p.r(U)p.d(C)p.d(T)}$$$RNA1{StrandType:ss}|RNA2{StrandType:as}$ too.
not fulfilled
